Experiment: Organ distribution of regorafenib in rats with or without RT
Format: in vivo, Sprague-Dawley rats
Settings: male, Sprague-Dawley, rat, spleen, oral, 16 mg/kg, rat, 4 h after oral administration; RT2 Gy × 1 f'x with regorafenib 16 mg/kg × 1 d (concurrent); read-out: Concentration in spleen
metric_name: concentration at 4 h (ng/g)
Only the number, expressed in ng/g, is required.

// sample `CNC(=O)c1cc(Oc2ccc(NC(=O)Nc3ccc(Cl)c(C(F)(F)F)c3)c(F)c2)ccn1` , its concentration at 4 h was 190

* * *

Test: Organ distribution of regorafenib in rats with or without RT
Format: in vivo, Sprague-Dawley rats
Conditions: Sprague-Dawley, rat, spleen, oral, 16 mg/kg, rat, 4 h after oral administration; RT2 Gy × 1 f'x followed by regorafenib 16 mg/kg × 1 d (sequential); read-out: Concentration in spleen
metric_name: concentration at 4 h (ng/g)
Only the number, expressed in ng/g, is required.

// sample CNC(=O)c1cc(Oc2ccc(NC(=O)Nc3ccc(Cl)c(C(F)(F)F)c3)c(F)c2)ccn1 [regorafenib, Regorafenib] , its concentration at 4 h was 680
